# System: Jurkat
# EXPERIMENT: cytotoxicity relative to DMSO, 18 h (ratio); higher = less cell death (drugs called cytotoxic fall below 1)
# TEST_SETTINGS: 10000 nM
READOUT_TYPE: cytotoxicity
Answers are plain numbers.

1. NC(=O)C1CCCc2c1[nH]c1ccc(Cl)cc21 (stereo unspecified): 0.974
2. COC1CC2CCC(C)C(O)(O2)C(=O)C(=O)N2CCCCC2C(=O)OC(C(C)CC2CCC(OC(=O)C(C)(CO)CO)C(OC)C2)CC(=O)C(C)C=C(C)C(O)C(OC)C(=O)C(C)CC(C)C=CC=CC=C1C (stereo unspecified): 0.925
3. O=C(NCC1(c2nc(-c3ccccc3)cs2)CCOCC1)c1cccc(-c2noc(C(F)(F)F)n2)c1: 0.891
4. Cn1nccc1Nc1nccc(-c2ccn(C(CO)c3ccc(Cl)c(F)c3)c(=O)c2)n1 (stereo unspecified): 1.02
5. CNC1CC2OC(C)(C1OC)n1c3ccccc3c3c4c(c5c6ccccc6n2c5c31)C(=O)NC4 (stereo unspecified): 0.913

Here is the next item to consider.
Dear colleague, please send me the reported cytotoxicity for O=c1[nH]cc(F)c(=O)[nH]1 when you can.
0.985

---

# Tested on: Jurkat
# EXPERIMENT: cytotoxicity relative to DMSO, 18 h (ratio); higher = less cell death (drugs called cytotoxic fall below 1)
# TEST_SETTINGS: 1 nM
Give measured cytotoxicity for each item. Keep answers brief.

Solved cases (3 shown):
1) Nc1ccn(C2OC(CO)C(O)C2(F)F)c(=O)n1 (centres undefined) [Gemcitabine]: 0.927
2) CC(C)(C)c1cnc(CSc2cnc(NC(=O)C3CCNCC3)s2)o1 [SNS-032]: 1.06
3) CCN1CCN(Cc2ccc(Nc3ncc(F)c(-c4cc(F)c5nc(C)n(C(C)C)c5c4)n3)nc2)CC1 [Abemaciclib]: 1.04

Here is the next item to consider.
Dear colleague, please send me the reported cytotoxicity for COc1cc2c(c(OC)c1OC)-c1ccc(OC)c(=O)cc1C(NC(C)=O)CC2 (centres undefined) [Colchicine] when you can.
0.985

---

# Tested on: Jurkat
# EXPERIMENT: cytotoxicity relative to DMSO, 18 h (ratio); higher = less cell death (drugs called cytotoxic fall below 1)
# TEST_SETTINGS: 1 nM
Give measured cytotoxicity for each item. Keep answers brief.

Solved cases (3 shown):
1) CC1CCN(C(=O)CC#N)CC1N(C)c1ncnc2[nH]ccc12 (centres undefined) [Tofacitinib]: 1.01
2) CCC(CO)Nc1nc(NCc2ccccc2)c2ncn(C(C)C)c2n1 (centres undefined) [Seliciclib]: 1.02
3) CC(C)(CNC(=O)c1cccc(-c2noc(C(F)(F)F)n2)c1)c1coc(-c2ccccc2)n1 [TMP195]: 0.995

Here is the next item to consider.
Provide Jurkat cytotoxicity reading for O=C(CCCCCCNC(=O)c1cnc(N(c2ccccc2)c2ccccc2)nc1)NO [Ricolinostat] .
1.01

---

# Tested on: Jurkat
# EXPERIMENT: cytotoxicity relative to DMSO, 18 h (ratio); higher = less cell death (drugs called cytotoxic fall below 1)
# TEST_SETTINGS: 1 nM
READOUT_TYPE: cytotoxicity
Answers are plain numbers.

Solved cases (5 shown):
1) CCS(=O)(=O)N1CC(CC#N)(n2cc(-c3ncnc4[nH]ccc34)cn2)C1: 0.929
2) CC1(c2nc3c(C(N)=O)cccc3[nH]2)CCCN1 (configuration not stated): 1.03
3) CC(C=CC(=O)NO)=CC(C)C(=O)c1ccc(N(C)C)cc1 (configuration not stated): 1.27
4) N.N.[Cl][Pt][Cl] [Cisplatin]: 0.845
5) Cc1c2oc3c(C)ccc(C(=O)NC4C(=O)NC(C(C)C)C(=O)N5CCCC5C(=O)N(C)CC(=O)N(C)C(C(C)C)C(=O)OC4C)c3nc-2c(C(=O)NC2C(=O)NC(C(C)C)C(=O)N3CCCC3C(=O)N(C)CC(=O)N(C)C(C(C)C)C(=O)OC2C)c(N)c1=O (configuration not stated): 1.08

Please state, for each entry, its recorded cytotoxicity.
1. Cn1nccc1Nc1nccc(-c2ccn(C(CO)c3ccc(Cl)c(F)c3)c(=O)c2)n1 (configuration not stated)
2. Nc1cc(C(F)(F)F)c(-c2cc(N3CCOCC3)nc(N3CCOCC3)n2)cn1

[1.1, 1.03]

---

Give measured cytotoxicity for each item. Keep answers brief.
# Test system: Jurkat
# EXPERIMENT: cytotoxicity relative to DMSO, 18 h (ratio); higher = less cell death (drugs called cytotoxic fall below 1)
# TEST_SETTINGS: 10000 nM

1. Cn1cc(-c2nc(NC3CCCCC3N)c(F)c3c2C(=O)NC3)cn1 (configuration not stated): 0.883

Please state, for each entry, its recorded cytotoxicity.
1. COc1cc(C)[nH]c(=O)c1CNC(=O)c1c(C)n(C(C)C2CCN(CC(F)(F)F)CC2)c2ccccc12 (configuration not stated)
2. CNCc1ccc(-c2[nH]c3cc(F)cc4c3c2CCNC4=O)cc1

1: 0.892; 2: 0.899

Please state, for each entry, its recorded cytotoxicity.
1. COc1ncc(-c2ccc3nccc(-c4ccnnc4)c3c2)cc1NS(=O)(=O)c1ccc(F)cc1F
2. CNC(=O)c1nn(C)c2c1C(C)(C)Cc1cnc(Nc3ccc(N4CCN(C)CC4)cc3)nc1-2
3. CC1(c2nc3c(C(N)=O)cccc3[nH]2)CCCN1 (configuration not stated)
4. O=C(NO)c1cnc(NC2(c3ccccc3)CC2)nc1
5. COC(=O)Nc1nc2ccc(C(=O)c3cccs3)cc2[nH]1
6. Nc1cccc2c1CN(C1CCC(=O)NC1=O)C2=O (configuration not stated) [Lenalidomide]
7. CCC(Nc1ncnc2nc[nH]c12)c1nc2cccc(F)c2c(=O)n1-c1ccccc1 (configuration not stated)

[0.923, 0.897, 0.9, 0.982, 0.59, 0.892, 1]

Please state, for each entry, its recorded cytotoxicity.
1. Nc1ncn(C2OC(CO)C(O)C2O)c(=O)n1 (configuration not stated)
2. COC(=O)c1ccc2c(C(=Nc3ccc(N(C)C(=O)CN4CCN(C)CC4)cc3)c3ccccc3)c(O)[nH]c2c1

1. 1.12
2. 0.537
